# Run description: Solubility studies of compound I
# Assay type: physicochemical
# Condition details: polyoxyglyceride (Labrafil M1944 CS), oil or lipid, Polyoxyglyceride (Labrafil M1944 CS); read-out: Solubility
Where a name gives a salt, the structure may show the parent alone.
Measured endpoint: solubility (µg/mL)

Compound: C#CCOc1ccc(Nc2nc(Nc3ccc(C)c(S(N)(=O)=O)c3)ncc2F)cc1 [Compound I HCl]
Quantitative result: 70

* * *

# Run description: Solubility studies of compound I
# Assay type: physicochemical
# Condition details: 12% H2O-88% THF, organic solvent or mixture, 12% H2O-88% THF; read-out: Solubility
Measured endpoint: solubility (mg/mL)

Smiles string: C#CCOc1ccc(Nc2nc(Nc3ccc(C)c(S(N)(=O)=O)c3)ncc2F)cc1
Measured endpoint: solubility
Quantitative result: 202
